- targetOrTestSystem: H10MbtA^opt (MbtAtb) (Mycobacterium tuberculosis (strain ATCC 25618 / H37Rv))
- runDescription: Progress curve analysis of H10MbtA^opt inhibition (HA-MesG assay)
- Format: biochemical
- settings: H10MbtA^opt 1 μM; inhibitor 4,000-1,041 nM; minimum of five independent experiments; read-out: Ki^app
testReadout: Ki (nM)
Give bare numbers, in nM.

IN: Look up Ki: Nc1ncnc2c1ncn2[C@@H]1OC(CNS(=O)(=O)NC(=O)c2ccccc2O)[C@@H](O)[C@H]1O (stereo partly shown)
OUT: 295

====

- targetOrTestSystem: H10MbtA^opt (MbtAtb) (Mycobacterium tuberculosis (strain ATCC 25618 / H37Rv), UniProt P71716)
- Sequence (P71716 whole entry, added parts left off): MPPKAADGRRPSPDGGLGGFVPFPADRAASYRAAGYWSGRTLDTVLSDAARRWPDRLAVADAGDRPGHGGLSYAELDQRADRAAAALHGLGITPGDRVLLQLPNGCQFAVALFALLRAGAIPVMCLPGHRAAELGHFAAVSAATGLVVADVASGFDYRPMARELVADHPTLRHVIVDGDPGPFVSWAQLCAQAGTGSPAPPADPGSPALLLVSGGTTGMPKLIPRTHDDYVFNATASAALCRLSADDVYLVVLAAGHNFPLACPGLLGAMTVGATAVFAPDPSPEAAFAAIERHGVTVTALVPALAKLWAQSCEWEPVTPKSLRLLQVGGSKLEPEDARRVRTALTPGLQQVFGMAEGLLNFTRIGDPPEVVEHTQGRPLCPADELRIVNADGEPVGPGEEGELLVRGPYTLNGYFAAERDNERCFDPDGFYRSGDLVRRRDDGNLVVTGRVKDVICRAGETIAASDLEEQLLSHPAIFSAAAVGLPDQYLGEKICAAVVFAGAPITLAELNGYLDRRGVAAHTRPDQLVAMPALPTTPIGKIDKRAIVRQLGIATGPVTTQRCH
- runDescription: biochemical
- settings: IC50 (mM), effect on the MbtAtb-dependent signal in the HA-MesG assay, salicyl-AMS fragments, nonspecific inhibition control
testReadout: IC50

IN: GET /values?readout=IC50&item= O=C(NS(=O)(=O)O)c1ccccc1O [compound 8, salicyl-sulfamate]
OUT: ~1 mM
